- SYSTEM NAME: Pa MurB (Pseudomonas aeruginosa, UniProt Q9HZM7)
- TEST DETAILS: Isothermal titration calorimetry
- Type: binding
- TEST CONTEXT: Table 5; LE = −(RTlnKd)/(number of heavy atoms)

[
  {
    "SAMPLE SMILES": "Cc1c(-n2c(C)cc(C(=O)O)c2C(F)(F)F)ccc(Cl)c1Cl",
    "LE": "0.31 kcal/mol per heavy atom"
  },
  {
    "SAMPLE SMILES": "Cc1cccc(C)c1-n1c(C)cc(C(=O)O)c1C",
    "LE": "0.32 kcal/mol per heavy atom"
  },
  {
    "SAMPLE SMILES": "Cc1ccccc1-n1c(C)cc(C(=O)O)c1C(F)(F)F",
    "LE": "0.30 kcal/mol per heavy atom"
  },
  {
    "SAMPLE SMILES": "Cc1c(-n2c(C)cc(C(=O)O)c2C)ccc(Cl)c1Cl",
    "LE": "0.33 kcal/mol per heavy atom"
  },
  {
    "SAMPLE SMILES": "Cc1cc(C(=O)O)c(C)n1-c1ccc(Cl)c(Cl)c1",
    "LE": "0.33 kcal/mol per heavy atom"
  },
  {
    "SAMPLE SMILES": "Cc1cc(Cl)c(Cl)cc1-n1c(C)cc(C(=O)O)c1C",
    "LE": "0.33 kcal/mol per heavy atom"
  },
  {
    "SAMPLE SMILES": "Cc1ccccc1-n1c(C)cc(C(=O)O)c1C",
    "LE": "0.34 kcal/mol per heavy atom"
  },
  {
    "SAMPLE SMILES": "Cc1c(-n2ncc(C(=O)O)c2C(F)(F)F)ccc(Cl)c1Cl",
    "LE": "0.32 kcal/mol per heavy atom"
  },
  {
    "SAMPLE SMILES": "Cc1cc(Cl)c(Cl)cc1-n1ncc(C(=O)O)c1C(F)(F)F",
    "LE": "0.35 kcal/mol per heavy atom"
  },
  {
    "SAMPLE SMILES": "Cc1cc(Cl)c(Cl)cc1-n1c(C)cc(C(=O)O)c1C(F)(F)F",
    "LE": "0.32 kcal/mol per heavy atom"
  }
]

---

- SYSTEM NAME: Pa MurB (Pseudomonas aeruginosa)
- TEST DETAILS: Surface plasmon resonance
- Assay type: binding
- TEST CONTEXT: Table 5; RU of compound at 1.0 mM compared with RU of fragment 4, n = 2

[
  {
    "SAMPLE SMILES": "Cc1cc(C(=O)O)c(C)n1-c1ccc(Cl)c(Cl)c1",
    "SYSTEM NAME": "Pa MurB (Pseudomonas aeruginosa)",
    "SPR RU>RUf4 1.0 mM": "no"
  },
  {
    "SAMPLE SMILES": "Cc1cc(Cl)c(Cl)cc1-n1ncc(C(=O)O)c1C(F)(F)F",
    "SYSTEM NAME": "Pa MurB (Pseudomonas aeruginosa)",
    "SPR RU>RUf4 1.0 mM": "yes"
  },
  {
    "SAMPLE SMILES": "Cc1ccccc1-n1c(C)cc(C(=O)O)c1C(F)(F)F",
    "SYSTEM NAME": "Pa MurB (Pseudomonas aeruginosa)",
    "SPR RU>RUf4 1.0 mM": "yes"
  },
  {
    "SAMPLE SMILES": "Cc1cccc(C)c1-n1c(C)cc(C(=O)O)c1C",
    "SYSTEM NAME": "Pa MurB (Pseudomonas aeruginosa)",
    "SPR RU>RUf4 1.0 mM": "no"
  },
  {
    "SAMPLE SMILES": "Cc1cc(C(=O)O)c(C)n1-c1ccc(Cl)cc1",
    "SYSTEM NAME": "Pa MurB (Pseudomonas aeruginosa)",
    "SPR RU>RUf4 1.0 mM": "no"
  },
  {
    "SAMPLE SMILES": "Cc1c(-n2c(C)cc(C(=O)O)c2C(F)(F)F)ccc(Cl)c1Cl",
    "SYSTEM NAME": "Pa MurB (Pseudomonas aeruginosa)",
    "SPR RU>RUf4 1.0 mM": "yes"
  },
  {
    "SAMPLE SMILES": "Cc1ccccc1-n1c(C)cc(C(=O)O)c1C",
    "SYSTEM NAME": "Pa MurB (Pseudomonas aeruginosa)",
    "SPR RU>RUf4 1.0 mM": "yes"
  },
  {
    "SAMPLE SMILES": "Cc1cc(C(=O)O)c(C)n1-c1cccc(Cl)c1",
    "SYSTEM NAME": "Pa MurB (Pseudomonas aeruginosa)",
    "SPR RU>RUf4 1.0 mM": "yes"
  },
  {
    "SAMPLE SMILES": "Cc1c(-n2ncc(C(=O)O)c2C(F)(F)F)ccc(Cl)c1Cl",
    "SYSTEM NAME": "Pa MurB (Pseudomonas aeruginosa)",
    "SPR RU>RUf4 1.0 mM": "yes"
  }
]

---

- SYSTEM NAME: Pa MurB (Pseudomonas aeruginosa, UniProt Q9HZM7)
- TEST DETAILS: Isothermal titration calorimetry
- Assay type: binding
- TEST CONTEXT: Table 3; LE = –(RTlnKd)/(number of heavy atoms)

[
  {
    "SAMPLE SMILES": "Cc1cc(C(=O)O)c(C(F)(F)F)n1-c1ccccc1",
    "SYSTEM NAME": "Pa MurB (Pseudomonas aeruginosa, UniProt Q9HZM7)",
    "LE [kcal/mol per heavy atom]": 0.28
  },
  {
    "SAMPLE SMILES": "Cc1cc(C(=O)O)c(C)n1-c1ccccc1",
    "SYSTEM NAME": "Pa MurB (Pseudomonas aeruginosa, UniProt Q9HZM7)",
    "LE [kcal/mol per heavy atom]": 0.34
  },
  {
    "SAMPLE SMILES": "Cc1c(C(=O)O)cc(CCO)n1-c1ccccc1",
    "SYSTEM NAME": "Pa MurB (Pseudomonas aeruginosa, UniProt Q9HZM7)",
    "LE [kcal/mol per heavy atom]": 0.28
  },
  {
    "SAMPLE SMILES": "Cc1c(C(=O)O)nnn1-c1ccccc1",
    "SYSTEM NAME": "Pa MurB (Pseudomonas aeruginosa, UniProt Q9HZM7)",
    "LE [kcal/mol per heavy atom]": 0.28
  }
]

---

- SYSTEM NAME: Pa MurB (Pseudomonas aeruginosa)
- TEST DETAILS: Surface plasmon resonance
- Format: binding
- TEST CONTEXT: Table 3; RU of fragment at 1 mM compared with RU of fragment 4, n = 2
PROPERTY NAME: SPR RU>RUf4 1.0 mM

[
  {
    "COMPOUND": "Cc1c(C(=O)O)nnn1-c1ccccc1 [Fragment 19]",
    "PROPERTY NAME": "SPR RU>RUf4 1.0 mM",
    "RECORDED VALUE": "no"
  },
  {
    "COMPOUND": "Cc1cc(C(=O)O)c(C(F)(F)F)n1-c1ccccc1 [Fragment 22]",
    "PROPERTY NAME": "SPR RU>RUf4 1.0 mM",
    "RECORDED VALUE": "yes"
  },
  {
    "COMPOUND": "Cc1nc(C(=O)O)c(C)n1-c1ccccc1 [Fragment 21]",
    "PROPERTY NAME": "SPR RU>RUf4 1.0 mM",
    "RECORDED VALUE": "no"
  },
  {
    "COMPOUND": "Cc1cc(C(=O)O)c(C)n1-c1ccccc1 [Fragment 20]",
    "PROPERTY NAME": "SPR RU>RUf4 1.0 mM",
    "RECORDED VALUE": "yes"
  }
]

---

- SYSTEM NAME: Pa MurB (Pseudomonas aeruginosa, UniProt Q9HZM7)
- TEST DETAILS: Isothermal titration calorimetry
- Assay type: binding
- TEST CONTEXT: Kd(μM) ITC, Table 3; 50 μM MurB, 3.0 mM fragment

[
  {
    "SAMPLE SMILES": "Cc1c(C(=O)O)nnn1-c1ccccc1",
    "Kd, µM": 877
  }
]

---

- SYSTEM NAME: Pa MurB (Pseudomonas aeruginosa, UniProt Q9HZM7)
- Sequence (Q9HZM7 1-339): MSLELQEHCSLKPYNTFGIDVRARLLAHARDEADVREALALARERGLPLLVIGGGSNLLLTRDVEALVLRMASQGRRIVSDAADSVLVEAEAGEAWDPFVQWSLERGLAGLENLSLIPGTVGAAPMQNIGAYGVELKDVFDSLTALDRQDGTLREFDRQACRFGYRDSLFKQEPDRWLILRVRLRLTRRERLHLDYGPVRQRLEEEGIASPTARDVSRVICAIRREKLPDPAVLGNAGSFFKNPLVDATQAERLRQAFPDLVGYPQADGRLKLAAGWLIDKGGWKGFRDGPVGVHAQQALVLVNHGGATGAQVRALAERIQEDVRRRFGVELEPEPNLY
- TEST DETAILS: Isothermal titration calorimetry
- Format: binding
- TEST CONTEXT: Kd(μM) ITC, Table 6; 50 μM Pa MurB, 3.0 mM fragment
PROPERTY NAME: Kd (µM)

[
  {
    "COMPOUND": "O=C(NS(=O)(=O)c1ccccc1)c1cnn(-c2ccccc2)c1C(F)(F)F [Fragment 60]",
    "RECORDED VALUE": 324
  }
]
